The measurements presented in this section are drawn from ChEMBL document CHEMBL2177068.

Reported Drug uptake by item:
Assay: Cellular uptake in normal human lung fibroblasts assessed as compound retention at 3 to 20 uM incubated for 3 hrs followed by drug washout measured after 3 hrs by LC-MS/MS analysis relative to initial drug accumulation
Type: ADME
quantity measured: Drug uptake (%)

{"compound": "CC[C@H]1OC(=O)[C@H](C)[C@@H](O)[C@H](C)[C@@H](O[C@@H]2O[C@H](C)C[C@H](N(C)C)[C@H]2O)[C@](C)(O)C[C@@H](C)CN(C)[C@H](C)[C@@H](O)[C@]1(C)O [DESCLADINOSYL AZITHROMYCIN]", "unit text": "%", "test value": 70}
{"compound": "CC[C@H]1OC(=O)[C@H](C)[C@@H](O[C@H]2C[C@@](C)(OC)[C@@H](OC(=O)CN(CC)CC)[C@H](C)O2)[C@H](C)[C@@H](O[C@@H]2O[C@H](C)C[C@H](N(C)C)[C@H]2O)[C@](C)(OC)C[C@@H](C)C(=O)N[C@H](C)[C@@H](O)[C@]1(C)O", "unit text": "%", "test value": 63}
{"compound": "CC[C@H]1OC(=O)[C@H](C)[C@@H](O[C@H]2C[C@@](C)(OC)[C@@H](O)[C@H](C)O2)[C@H](C)[C@@H](O[C@@H]2O[C@H](C)C[C@H](N(C)C)[C@H]2O)[C@](C)(OC)C[C@@H](C)C(=O)N[C@H](C)[C@@H](O)[C@]1(C)O", "unit text": "%", "test value": 35}
{"compound": "CC[C@H]1OC(=O)[C@H](C)[C@@H](O[C@H]2C[C@@](C)(OC)[C@@H](O)[C@H](C)O2)[C@H](C)[C@@H](O[C@@H]2O[C@H](C)C[C@H](N(C)C)[C@H]2O)[C@](C)(O)C[C@@H](C)CN(C)[C@H](C)[C@@H](O)[C@]1(C)O [AZITHROMYCIN]", "unit text": "%", "test value": 80}

* * *

Experiment: Cellular uptake in human MDM at 3 to 20 uM after 3 hrs by LC-MS/MS analysis relative to azithromycin
Format: ADME

{"compound": "CC[C@H]1OC(=O)[C@H](C)[C@@H](O[C@H]2C[C@@](C)(OC)[C@@H](O)[C@H](C)O2)[C@H](C)[C@@H](O[C@@H]2O[C@H](C)C[C@H](N(C)C)[C@H]2O)[C@](C)(OC)C[C@@H](C)C(=O)[C@H](C)[C@@H](O)[C@]1(C)O [CLARITHROMYCIN]", "unit text": "%", "Drug uptake": 66}
{"compound": "CC[C@H]1OC(=O)[C@H](C)[C@@H](O[C@H]2C[C@@](C)(OC)[C@@H](O)[C@H](C)O2)[C@H](C)[C@@H](O[C@@H]2O[C@H](C)C[C@H](N(C)C)[C@H]2O)[C@](C)(OC)C[C@@H](C)C(=O)N[C@H](C)[C@@H](O)[C@]1(C)O", "unit text": "%", "Drug uptake": 11}
{"compound": "CC[C@H]1OC(=O)[C@H](C)[C@@H](O[C@H]2C[C@@](C)(OC)[C@@H](OC(=O)CN(CC)CC)[C@H](C)O2)[C@H](C)[C@@H](O[C@@H]2O[C@H](C)C[C@H](N(C)C)[C@H]2O)[C@](C)(OC)C[C@@H](C)C(=O)N[C@H](C)[C@@H](O)[C@]1(C)O", "unit text": "%", "Drug uptake": 148}
{"compound": "CC[C@H]1OC(=O)[C@H](C)[C@@H](O)[C@H](C)[C@@H](O)[C@](C)(O)C[C@@H](C)CN(C)[C@H](C)[C@@H](O)[C@]1(C)O [AZITHROMYCIN AGLYCONE]", "unit text": "%", "Drug uptake": 28}
